Each item that follows carries a reported growth.
# Test system: NCI-H23 lung
# experiment notes: NCI-60 one-dose screen, 48 h (100 = growth as untreated, 0 = no growth, -100 = all killed)
# assay context: 10 µM
# Experimental: Growth inhibition of the NCI-H23 human Non-Small Cell Lung tumor cell line is measured as a screen for anti-cancer activity. Cells are grown in 96 well plates and exposed to the test compound for 48 hours. Compounds are tested at a single concentration, which is 10^-5 M for most compounds. The reported endpoint is percent growth (GI% or GIPRCNT), where numbers from 0 - 100% represent growth inhibition, and numbers from -100% - 0 represent cell death. […]
This is part of a sample that, as a whole, favours compounds with a hit. Of some 83,000 tested, about 20% had one in any assay.
# output: bare number, implied unit %

Known growth results, listed for orientation:
CC1(C)/C(=C\CO)C2CCC1C2 (stereo not drawn)	103
O=c1cc(-c2ccccc2)[nH]c2c1CCCC2	32.1
C[C@@H](c1ccccc1)[C@@H](C(=O)O)c1ccccc1	100
O=c1[nH][nH]c(=O)c2cc([N+](=O)[O-])ccc12	101
O=C(O)CCC(=O)OC(C1CO1)C(OC(=O)CCC(=O)O)C1CO1 (stereo not drawn)	102

Challenge: Name the recorded growth for "O=C1c2ccccc2C(=O)N1OCc1ccccc1" .
Response given: 111

Challenge: Note, next up: "CC(C)(N)COS(=O)(=O)O"
Response given: 116

Challenge: Note, next up: "c1ccc(Cc2ccccc2)cc1"
Response given: 107

Challenge: Note, next up: "CCc1nc(N)nc(N)c1-c1ccc(Cl)cc1"
Response given: 64.4

Challenge: Note, next up: "CCCCN(CCCC)CCCO"
Response given: 104

Challenge: Note, next up: C#C[C@H]1CCCCCC1O (stereo partly drawn)
Response given: 95.7

Challenge: Note, next up: "CN(C)c1ccc(S(=O)(=O)O)cc1"
Response given: 103

Challenge: Note, next up: "CCOC(=O)c1[nH]c(C)c(C(C)=O)c1C"
Response given: 94.2

###

# Tested on: SF-268 CNS
# experiment notes: NCI-60 one-dose screen, 48 h (100 = growth as untreated, 0 = no growth, -100 = all killed)
# assay context: 10 µM
This is part of a sample that, as a whole, favours compounds with a hit. Of some 83,000 tested, about 20% had one in any assay.
readout name: growth (%)
# output: bare number, implied unit %

Challenge: Name the recorded growth for CC1CC(O)C2C3(C)CCCC2(COC3=O)C12CCC1(CCOC1=O)O2 (stereo not given) .
Response given: 107

Challenge: Note, next up: COc1ccc(C(O)c2ccccc2)cc1 (stereo not given)
Response given: 93.8

Challenge: Note, next up: CS(=O)CC1=NC(=N)N=C1CS(C)=O (stereo not given)
Response given: 106

Challenge: Note, next up: "Cc1cc(=O)cc(C)n1-c1ccccc1"
Response given: 109

Challenge: Note, next up: "O=[N+]([O-])c1cccc(N=Nc2ccc(O)cc2O)c1"
Response given: 83.4

Challenge: Note, next up: "COc1ccc(/C=C/c2cccc[n+]2C)cc1"
Response given: 97.2

Challenge: Note, next up: "O=c1[nH]n(-c2ccccc2)c(=O)cc1Cl"
Response given: 101

Challenge: Note, next up: "O=C(Nc1cccc(NC(=O)Nc2cc(C(F)(F)F)ccc2Cl)c1)Nc1cc(C(F)(F)F)ccc1Cl"
Response given: 48.5

###

# Test system: PC-3 prostate
# experiment notes: NCI-60 one-dose screen, 48 h (100 = growth as untreated, 0 = no growth, -100 = all killed)
# assay context: 10 µM
This is part of a sample that, as a whole, favours compounds with a hit. Of some 83,000 tested, about 20% had one in any assay.
Label MET when growth is strictly below 80%; at or above that, label NOT MET.

Challenge: Please check: growth for "CCOC(=O)c1cc(/C=C/c2cccc(Cl)c2)on1" , strictly under 80% or not?
Response given: NOT MET

###

# System: MDA-MB-435 melanoma
# experiment notes: NCI-60 one-dose screen, 48 h
# assay context: 10 µM
Compounds without any hit were thinned out: in the full panel of roughly 83,000, 20% have a hit. Active and inactive are the calls of the source. Rule for the calls: active = growth percent below 10; inactive = the rest.
Outcome field: choose from true (active), false (inactive)

O=C(O)CCCC(=O)O	false
O=C1Cc2ccccc2C(=O)O1	false
O=C(/C=C/C(=O)c1ccccc1)c1ccccc1	false
CC1(C)OC(=O)C(c2ccsc2)C(=O)O1	false
COC(=O)c1ccc(NC(=O)CCl)cc1	false

Challenge: Dear colleague, could you share the recorded outcome for "CC(C)(C)n1nc(C2CC2)c(Br)c1NC(=O)c1ccccc1F" when you have a moment?
Response given: false

Challenge: Note, next up: "CCc1ccc(/C(C#N)=C/C=C/c2ccccc2)cc1"
Response given: true

Challenge: Note, next up: "COc1ccc(/C=C/c2cccc[n+]2C)cc1"
Response given: false

###

# System: BT-549 breast
# experiment notes: NCI-60 one-dose screen, 48 h (100 = growth as untreated, 0 = no growth, -100 = all killed)
# assay context: 10 µM
This is part of a sample that, as a whole, favours compounds with a hit. Of some 83,000 tested, about 20% had one in any assay.
Label class 1 when growth is strictly below 30%; at or above that, label class 0.

# count of solved cases: 4
CCS(=O)(=O)c1cc(=O)[nH]c(=O)[nH]1	class 0
CC(=O)OCCC(C)CCC=C(C)C (stereo not given)	class 0
Cc1ccccc1C1N=C2Oc3ccccc3C=C2C(=O)N1 (stereo not given)	class 1
CO[C@H]1C[C@@H]2CC[C@@H](C)[C@@](O)(O2)C(=O)C(=O)N2CCCC[C@H]2C(=O)O[C@H]([C@H](C)C[C@@H]2CC[C@@H](O)[C@H](OC)C2)CC(=O)[C@H](C)C=C(C)[C@@H](O)[C@@H](OC)C(=O)[C@H](C)C[C@H](C)/C=C/C=C/C=C1C	class 1

Let us examine a further case.
Challenge: Please check: growth for "Nc1ccc(C(=O)c2ccc(N)c(Br)c2)cc1Br" , strictly under 30% or not?
Response given: class 0

###

# Test system: OVCAR-3 ovarian
# experiment notes: NCI-60 one-dose screen, 48 h (100 = growth as untreated, 0 = no growth, -100 = all killed)
# assay context: 10 µM
The panel holds about 83,000 compounds, 20% with a hit somewhere; the sample as a whole holds those more often.
readout name: growth (%)
# output: bare number, implied unit %

Known growth results, listed for orientation:
C1CNC(C2=NCCN2)=N1	94.2
S=C1NCc2cncnc2N1	112
O=C(O)c1ccccc1NCc1ccco1	111
O=C(O)CSCSCC(=O)O	104
Nc1nc(N)c2cc(S(=O)(=O)c3cccc(C(F)(F)F)c3)ccc2n1	79.2

Challenge: Name the recorded growth for "CC(C)=C(NC(=O)c1ccccc1)C(=O)O" .
Response given: 107

Challenge: Note, next up: "Nc1ncnc2[nH]ncc12"
Response given: -22.2

Challenge: Note, next up: "S=c1sc2ccccc2n1CN1CCCCC1"
Response given: 93.3

Challenge: Note, next up: "N#CCCc1ccc(O)cc1"
Response given: 110

Challenge: Note, next up: "O=C(Cc1nc2ccc([N+](=O)[O-])cc2nc1CC(=O)c1cccnc1)c1cccnc1"
Response given: 65.1

###

# Tested on: HCT-116 colon
# experiment notes: NCI-60 one-dose screen, 48 h
# assay context: 10 µM
The panel holds about 83,000 compounds, 20% with a hit somewhere; the sample as a whole holds those more often. Active and inactive are the calls of the source. The calls were made as follows: active = growth percent below 10; inactive = the rest.
Outcome field: choose from label 1 for active, label 0 for inactive

CCOC(=O)CSc1c([N+](=O)[O-])ncn1C	label 0
NCCC(=O)c1ccc(Cl)cc1	label 0
CC(=O)c1c[nH]c2ccccc12	label 0
CSC(=N\N=C\c1ccc(N(C)C)cc1)/N=C/N(C)C	label 0
CC1C(=O)c2ccccc2CC1C(=O)O (centres undefined)	label 0

Let us examine a further case.
Challenge: Dear colleague, could you share the recorded outcome for "O=[N+]([O-])c1cccc2nsnc12" when you have a moment?
Response given: label 0

###

# Tested on: SR leukemia
# experiment notes: NCI-60 one-dose screen, 48 h (100 = growth as untreated, 0 = no growth, -100 = all killed)
# assay context: 10 µM
This is part of a sample that, as a whole, favours compounds with a hit. Of some 83,000 tested, about 20% had one in any assay.
Label 1 when growth is strictly below 80%; at or above that, label 0.

# count of solved cases: 3
CCCC[P+](c1ccccc1)(c1ccccc1)c1ccccc1	1
O=C(N/N=C/c1ccccc1O)Nc1nn[nH]n1	0
Cc1ncc(C#N)c(N)n1	0

Challenge: Please check: growth for "COc1ncnc2c1cnn2C" , strictly under 80% or not?
Response given: 0

Challenge: Note, next up: "COc1ccc(OC)c(/C=C2\CCc3ccccc3C2=O)c1"
Response given: 1
